Read-out: matrix metalloproteinase-3 (MMP3), MMP3 (gene 4314)
Assay: LTEA_HepaRG_MMP3: Life Technologies and Expression Analysis (LTEA) Assay for matrix metalloproteinase-3 (MMP3) using HepaRG (AID 2283519)
Conditions: mRNA level, 48 h; actives raise or lower the signal
Procedure: LTEA_HepaRG is a cell based, multiplexed-readout assay that uses HepaRG, a human liver cell line, with measurements taken at 48 hours after chemical dosing on a 96-well plate.LTEA_HepaRG_MMP3 is one of 102 assay component(s) measured in the LTEA HepaRG cell culture assay. It is a marker of Fibrosis.Data from the assay component LTEA_HepaRG_MMP3 was analyzed into 1 endpoint. […]
Calls of active or inactive are those of the source. How the source made its calls: active means hit-call score of the fitted dose curve at least 0.9, where 1 is the maximum; inactive means score below 0.9.
Possible outcomes: 1.0 for active, 0.0 for inactive

smiles-data: O=C(NS(=O)(=O)/C=C/c1cccs1)c1ccc(F)cc1Br
assigned-category: 0.0
//
smiles-data: CN(C)CCCN1c2ccccc2Sc2ccc(Cl)cc21
assigned-category: 0.0
//
smiles-data: CC1(C)C(=O)NC(=O)N1CO
assigned-category: 0.0
//
smiles-data: C=CCc1ccc(OC)c(OC)c1
assigned-category: 0.0
//
smiles-data: O=C(Oc1ccccc1)c1cccc(C(=O)Oc2ccccc2)c1
assigned-category: 0.0
//
smiles-data: O=C(N[C@@H](c1ccccc1)[C@@H]1CCCCN1)c1cccc(C(F)(F)F)c1Cl
assigned-category: 1.0
//
smiles-data: CC(=O)O
assigned-category: 0.0
//
smiles-data: Cn1cnc2c1c(=O)[nH]c(=O)n2C
assigned-category: 0.0
